target under test: T1, human TIM3, full length, on cells (human, UniProt Q8TDQ0 22-301)
T1 construct: CHO-K1 cells were transfected with a plasmid for full-length human Tim3; other cells carry endogenous TIM3; also called huTIM-3; CHO-Tim3
procedure details: FACS, human CD14+ monocytes, donor1, 10 µg/ml
For each entry below, report its Specific Binding [MFI] value.
The response must be a number in MFI with no trailing unit.

So what does the record say about Specific Binding [MFI] for anti-TIM3 antibody Tim3_0022 (antibody, V domains shown, Mouse monoclonal from hybridoma; also called <TIM-3> Ab(022)) VH: EVQLQESGPSLVKPSQTLSLTCSVTGDSIASAYWNWIRKFPGNKLEYMGYINYSGSTYYNPSLKSRISITRDTSQNQYYLQLNSVTTEDTATYYCVTGDYFDYWGRGTTLTVSS VL: DIQMTQSPSSLSAYLGGKVTITCKARQDVRKNIGWYQHKPGKGPRLLIWYTSTLQSGIPSRFSGSGSGRDYSFNINNLEPEDIATYYCLQYDNLPFTFGTGTKLEIR ? 1470

# iterate: anti-TIM3 antibody Tim3_0033 (antibody, V domains shown, Mouse monoclonal from hybridoma) VH: QGQMHQSGAELVKPGSSVKLSCKTSGFTFSSSFISWLKQKPGQSLEWIAWIYAATGSTSYNQKFTNKAQLTVDTSSSAAYMQFSSLTTEDSAIYYCARHAGYPHYYAMDYWGQGTSVTVSS VL: DIQMTQSPASLSASVGETVTITCRASENIFSNLAWYQQKQGKSPQLLVYSATNLGDGVPSRFSGSGSGTQFSLKINSLQPEDFGNYYCQHFYKIPFTFGTGTKLEIK 480

# iterate: anti-TIM3 antibody Tim3_0021 (antibody, V domains shown, Mouse monoclonal from hybridoma) VH: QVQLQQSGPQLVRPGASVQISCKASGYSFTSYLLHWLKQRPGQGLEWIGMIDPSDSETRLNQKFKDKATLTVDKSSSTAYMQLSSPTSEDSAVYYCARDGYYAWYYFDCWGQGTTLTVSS VL: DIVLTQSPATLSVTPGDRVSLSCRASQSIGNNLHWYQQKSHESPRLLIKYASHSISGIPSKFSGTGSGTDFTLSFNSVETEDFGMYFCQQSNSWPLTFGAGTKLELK 1130
